test: yeast display, Sf9 membrane polyspecificity reagent, FACS + sequencing; frameworks hold sequencing errors

construct sequence | polyreactivity (PSR sort gate)
QVQLVESGGGLVQAGGSLRLSCAASGRTFGVNAMGWYRQAPGKERELVATIRRGGSTYYADSVKGRFTISRDNAKNTVYLQMNSLKPEDTAVYYCNASHVTWNRKYDYWGQGTQVNVSS | low polyreactivity
QVQLVDSVGGLVQAGGSLRLSCAASGSIFGVYAKGWYRQAPGKERELVAAIDESGGSTFYADSVKGRFTISRDNAKNTVYLQMNSLKPEDTAVYYCLVFREDSGPGDYYYWGQGTQVTVSS | low polyreactivity

----------
experiment: yeast display, Sf9 membrane polyspecificity reagent, FACS + sequencing; frameworks hold sequencing errors

construct sequence | polyreactivity (PSR sort gate)
QFQLVESGGGLVQAGGSLRLSCAAYGSTLYPYEMGWYRQAPGKERELVAAIDSGGSKNYADSVKGRFTISRDNAKNTVYLQMNSLKPEDTAVYYCAADGGVAWGYGYWGQGTQVTVSS | low polyreactivity
QVQLVESGGGLVQAGGSLRLSCAASGSIFQPYAMGWYRQAPGKEWELVAAISRGGTTYYADSVKGRFTISRDNAKNTVYLQMNSLNPEDTAVYYCAVKGYRYVTRYDYWGQGTQVTVSS | high polyreactivity
QVQLVESGGGLVQAGGSLLLSCAASGRTLGKYAMGWYRQAPGKERELVAAISSGGGSTYYSDSVKGRFTISRDNAKNTVYLLMNSLKPEDTAVYYCAADSVSRYNGYDYWGQGTQVTVSS | high polyreactivity
QVQLVESGGGLVQAGGSLRLSCASSGFIFRYYAMGWYRQAPGKERELVAAISWRGDSTSYADSVKGRFTISRDNAKYTVYLQMNSLKPEDTAVYYCAAGRYLAYLYWGRYEYYYWGQGTQVTVSS | low polyreactivity
HVQLQESGGGLVQAGGSMRLSCAESGSISELRPMGLYRKAPGKERELVAGISTGGSTNYADSVKGRFTISLDNAKNTVYLQMNSLKPEYTAVYFCAAASYCEGTYDYWGQGTQVTVRS | high polyreactivity
QVQLVESGGGLVPAGGSLRLSCAASGFTFDSYAMGWYRQAPGKERELVAAMSYRGGTTYYADSVKGRFTISRDNAKNTVYLQMNSLKPEDTAVYYCTRLWKYGYNYWGQGTQVTVSS | high polyreactivity
QVQLVESGGGLVQAGGSLRLSCAASGIIFKSYAKGWYRQAPGKARELVAAMSWIGGSTYYADSVKGRFTISRDNAKHTVYFQMTSLKPEATAVYYCNARQYRRSRMDYWGQGTQVTVSS | high polyreactivity
QVQLVESGGGLVQAGGSLRLSCAACGNIFGPYAMGWYRQAPGKERELVAAISFTGVSTYYADSVKGRFTISRDNAKNTVYLQMNSLKPEDTAVYYCSYYRSSTYYYWGQGTQVTVSS | high polyreactivity
QVQLVESRGGLVQAGGSLLLSFAASGRTYPYNAMGWYIQAPRKERELVAGISSGGTTTYADSVKGRFTISRDNAKNTVYLQMNSLKPEDTAVYYCAATVIIFDHSLPGWDDYDYWGQGTQVTVSS | low polyreactivity
QVQLVESGGVLVQAGGSLRLSCAASGRIFHYYAMGWYRQAPGKETELVAANSSRRGSTYYADSVKGRFTISRDNAKNNFYLQMNILKAYDTAVYYCNARGWGYWVRFDYWGQGTQVTVSS | high polyreactivity
QVQLEESGGGLVQAGGSLRLSCAASGINFSVYGMGGYRQATGKERELVASITKSGGTTYYADSVKGRFTISRDNAKNTVYLQMNSLKPEDTAVYYCAAAWSDKRVLSVYYAYYWGQGTQVTVSS | high polyreactivity
QVHLVESGGGLVQAGGSLRLSCAASGLTFYWYTMGWYRQAPGKERELVAAITSGGSTSYADSVKGRFTISRDNAKNTVYLQMNSLKPEDTAVYYCAADGQVSGYDYWGQGTQVTVSS | high polyreactivity
QVQLEESRGGLVQAGGSLRLSCAASGSILTGYAMGLSRQAPGKERELVAAINFSGDNTYYADSVKGRFTISRDNAKNSVYLQMNSLKPEDTAVYYCNARNAVEDDYWGQGTQVTVSS | low polyreactivity
QVQLVESGVGLVESGGSLRLSCASSGSTFVYTAMCWYRQSPGKERELVAAISWSGGSTYYADSVKGRFTISRDNAKKTVYLQMNSQKPEDTAVYYCAADGNPPAAMDYRGQGTQVTVSS | low polyreactivity
QVQLVESGGGLVQAGGSLRLTCAASGSTFTAYAMGWYRQAPGKERELVADISDSGGSTYYADSVKGRFTISRDNAKNTVYLQMNSLIPEDTAVYYCAVDVRAYVVSKFDSWGQGTQVTVSS | low polyreactivity
QVQLVESGGGLVQAGGSLRLSCAASGSIFRKNAMGWYRQAPGKERELVAAITYRTGSTYYADSVKGRFTISRDNAKNTVYLQMNSLKPEDTAVYYCAAQTWGSGYGHIGRRRHDYWGQGTQVTVSS | high polyreactivity
QVQLVESGGGLVQARGSLRLSCAASGSTFDPYAMGWYRQAPGINYSGASTYYADSVKGRFTISRDNAKNTVYLQMNSLKPDDTAVYYCAAEFVAQMNYWGQGTQVNVSS | low polyreactivity
QVQLVESGGGLVQAGGSLRLSCAASGNIFSRYAMGWYRKAPGKERELVAAISKSGGSTYYADSVKGRFTISRDNAKNTVYLQMNSLKPEDSAVYYCAAYSFFLGYPEFDYWGQGTQVTVSS | high polyreactivity
QVQLVESGGGLVQAGGSLRLSCAASGSLFYSYAMGWDRPAPGKERELVAAIRRDGSTNYADSVKGRFTISRDNAKNTVYLQMNSLKPEDTAVYYCNADGWNTYIGPRRYRYDYWGQGTQVTVSS | low polyreactivity
QVQLVESGGGLVQAGGSLSLSCAASARTFYGSAKGWYRQAPGKERELVAAINYSGGRTYYADSVKGRFTISRDNAKNTVYLQMNSLKAEDTAGYYCAAPRASGYYWGQGTQVTVSS | high polyreactivity
QVQLEESGLALVQAGGSLRLSCADSGRIFRKKAMGWYRQAPGKERELVAAISSSGSTYYADSVKGRFKISRDNAKNTVYLQMNSLKPVDTAVYYCAARYQYGNRRGRDYWGQGTQVTVSS | high polyreactivity

----------
assay: yeast display, Sf9 membrane polyspecificity reagent, FACS + sequencing; frameworks hold sequencing errors

construct sequence | polyreactivity (PSR sort gate)
QVLLQESGGGLVQAGGSLRLCCSASGYISGDQFMGWYRQAPGKEREFVAGIGNGTNTNYADSVKGRFTTSRDNEKNTVYLQMNIRKPEDTAVYYCAADPSDGSTLAYWGQGTQVTVSS | high polyreactivity
QVHLVESGGGLVQAGGSLRLSCAASGRTFNVYAMGWYRQAPGKERELVASISSSDTTNYADSVKGRFTISRDNAKNTVYLQMNSLKPEDTAVYYCAADYTPDLLSKVDYWGQGTQVTVSS | low polyreactivity
QVQLVESGGGLVQAGGSLRLSCAASGSIFVRYTMGWYRQAPGKERELVAAISWGGGSTYYADSVKGRFTISRDNAKNTVYLQMNSLKPEDTAVYYCNKRYIQLYDYWGQGTQVTVSS | low polyreactivity
QVQLVESGGGLVQAGGSLRLSCAASGGTFKTYVMGWSRQEPGKERELVAVISGSGASTYYADSVKGRFTISRDNAKNTVYLQMNSLKPEDTAVYYCAARYAWGWSGYYYWGQGTQVTVSS | high polyreactivity
QVQLEESGGGLVQAGGSLRLSCAASGIIFILYTMGWYRQAPGKERELVATISSGGGSTFYADSVKGRFTISRDNAKNTVYLQMNSLKPEDTAVYYCAAEQLYYGERYYIWGYYYWGQGTQVTVSS | low polyreactivity

----------
test: yeast display, Sf9 membrane polyspecificity reagent, FACS + sequencing; frameworks hold sequencing errors
quantity measured: polyreactivity (PSR sort gate)

construct sequence | val
QVQLVESVGGLVKAGGSLRLSCAASGSIFGTNAMGWYRQAPGKERELVAVISDGGSTYYADSVKGRFTISRENAKNTVYLQMNSLKPADTAVYYCNTPLESPFYSRVGTTESDHWGQGTQVTVSS | low polyreactivity
QVQLVESGGGLVQAGGSLSLICAASGFTFGSNDMGWYRQAPGKERELVAAIDGSGDTYYADSVKGRFTISRDNAKNTVYLQMNSLKPEDTAVYYCARDDNPIYSGVTYDYWGQGTQVTVSS | low polyreactivity
QVQLVESGGGLLLAGGSLRLSCAASGNIFRANTRGWYRQAPGKERELVASIRRSGGSTYYADSVKGRFTISRDNAKNTVYLQMNSLKPEDTAVYYCAAKSRPPYTDNYYWGQGTQVTVSS | high polyreactivity
QVQLVESGGGLVQAGGSLRLSCAASGLTFDDYAMGWYRQAPGKERELVAAINWSGSNTYYADSVKGRFTISRDNAKNTVYLQMNSLKPEDTAVYYCATYSRIFKWEYYYWGQGTQVTVSS | high polyreactivity
QVQLVESGGGLVQAGGSLRLSCAASGRTFPAYTMGWYRQAPGKERELVAAINWSGGSTYYADSVKGRFTISRDNAKNTVYLQMNSLKPEDTAVYYCARTSHYYGFRSYGTLDYWGQGTQVTVSS | high polyreactivity
QVQLVESGGRLVQAGGSLRLSCAASGRIFVVNAMGWYRQAPGKEREFVAAITDNTGSTYYADSVKGRFTISRDNAKNTGYLQMNSLNPEDTAVYYCAAYGYSKDLWNFYYWGQGTQVTVSS | low polyreactivity
QVQLVKSGGGLVQAGGSLRLSCAASRFIIPEYTMGWYRQAPGKARELVAAISGSGGSTYYADSVKGRFTISRDNAKHTVYLQMNSLKPEDTAVYYCATAFIVPFPGSDYWGQGTQVTVSS | low polyreactivity
QVQLVESGAGLVQAGGSLRLSCAASGSIFGRDTMGWYRQAPGKERELVAAINLRGGSTYYADSVKGRFTISRDNAKNTVYLQMNSLKPEDTAVYYCATDGWKQSAYDYWGQGTQVTVSS | low polyreactivity
QVQLVESGGGLVQAGGSLRLSCAASGRIFRYYAMGWSRQAPGKERELVAAITSDGRTYYADSVKGRVTISRDNAKNTVYLQMNSLKPEDTAVYYCAADHHSYRYGGYYYWGQGTQVTVAS | low polyreactivity
QVHLVESGGGLVQAGGSLRLSCAASGSIFYINAMGWYRQPPGKDREFVARISWRSGSTSYADSVKGRFTISRDNAKNTVYLQMNSLKPEDTAVYYCNAGVFANDNGGRRDQFTWEYEYWGQGTQVTVSS | low polyreactivity
QVQLVESGGGLVQAGGSLRLSCAASAFTFQNYAMGWYRQAPGKERELVAAIDSRGGRTYYADSVKGRFTISRDNAKNTVYLQMNSLKPEDTADDYCAVAENSRFGSVGYYYWGQGTQVTVSS | low polyreactivity
